# credit: patent EP1849784A1

ASSAY_TARGET: UniProtKB P21554
Sequence (P21554 whole entry): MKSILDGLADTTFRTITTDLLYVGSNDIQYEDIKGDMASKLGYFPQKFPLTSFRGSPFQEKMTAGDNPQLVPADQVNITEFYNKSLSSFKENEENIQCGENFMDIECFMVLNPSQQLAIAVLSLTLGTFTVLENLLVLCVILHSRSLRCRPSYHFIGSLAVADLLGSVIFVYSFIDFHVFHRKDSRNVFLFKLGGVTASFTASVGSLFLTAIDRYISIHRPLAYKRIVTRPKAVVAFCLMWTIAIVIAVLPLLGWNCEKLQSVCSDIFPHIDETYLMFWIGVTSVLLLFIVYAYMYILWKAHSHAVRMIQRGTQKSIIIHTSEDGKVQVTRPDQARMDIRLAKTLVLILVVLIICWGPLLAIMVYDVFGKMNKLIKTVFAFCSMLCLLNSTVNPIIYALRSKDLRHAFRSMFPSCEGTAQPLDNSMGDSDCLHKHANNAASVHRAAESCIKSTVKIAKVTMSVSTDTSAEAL
METRIC_NAME: IC50 (nM)

| COMPOUND | METRIC_NAME | MEASURED_RESULT |
| --- | --- | --- |
| O=C(NN1CCc2ccccc21)C1=NN(c2ccc(Cl)cc2Cl)C(c2ccc(Cl)cc2)C1 (stereo not shown) [Example 2] | IC50 | 100 |
